Biological target: Adenosine receptor A3 (Homo sapiens) (UniProt P0DMS8)
Sequence (P0DMS8 whole entry): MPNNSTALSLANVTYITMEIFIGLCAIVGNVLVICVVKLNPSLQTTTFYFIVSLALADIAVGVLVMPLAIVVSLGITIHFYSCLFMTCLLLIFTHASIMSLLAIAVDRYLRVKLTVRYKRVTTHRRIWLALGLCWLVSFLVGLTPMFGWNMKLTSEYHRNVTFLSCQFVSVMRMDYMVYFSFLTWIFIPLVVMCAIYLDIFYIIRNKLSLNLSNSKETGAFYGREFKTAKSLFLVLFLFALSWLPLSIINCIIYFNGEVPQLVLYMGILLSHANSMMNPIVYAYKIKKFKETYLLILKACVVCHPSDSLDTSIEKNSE
Experiment: Displacement of [125I]AB-MECA from human adenosine A3 receptor expressed in CHO cell membranes at 1 uM incubated for 120 mins by scintillation counting method
Attribute: inhibition
Respond with the bare value in %.

Please review the following examples before continuing.
Cc1nc2sc(-c3cccc(C(F)(F)F)c3)nc2c(=O)[nH]1	15
COc1ccc(Nc2nc3c(=O)[nH]c(C)nc3s2)cc1	36
Cc1nc2sc(-n3ccnc3)nc2c(=O)[nH]1	8
CCOc1nc(C)nc2sc(-c3ccc(C)cc3)nc12	5
CCOc1nc(C)nc2sc(-c3ccccc3)nc12	6
COc1cccc(-c2nc3c(=O)[nH]c(C)nc3s2)c1	28

Here's the next entry for you.
QUERY: Return inhibition for the following compound: "Cc1nc2sc(Nc3ccc(Cl)c(Cl)c3)nc2c(=O)[nH]1"
RESULT: 25

* * *

# Lookup of reported inhibition keyed by entry
Molecular target: Adenosine receptor A1 (Homo sapiens)
Test: Displacement of [3H]DPCPX from human adenosine A1 receptor expressed in CHO cell membranes at 1 uM incubated for 120 mins by scintillation counting method
Write it as a number; the unit % goes unstated.

Cc1nc2sc(Cc3ccccc3)nc2c(=O)[nH]1	11
COc1cccc(-c2nc3c(=O)[nH]c(C)nc3s2)c1	1
Cc1cccc(Nc2nc3c(=O)[nH]c(C)nc3s2)c1	12
Cc1nc2sc(Nc3cccc(Cl)c3)nc2c(=O)[nH]1	44
COc1cccc(Nc2nc3c(=O)[nH]c(C)nc3s2)c1	8
Cc1nc2sc(-c3ccc(C(=O)O)cc3)nc2c(=O)[nH]1	1

Could you now consider this next molecule?
QUERY: Please give the documented inhibition of "Cc1ccc(Nc2nc3c(=O)[nH]c(C)nc3s2)cc1"
RESULT: 20

* * *

Biological target: UniProtKB P29274
Sequence (P29274 whole entry): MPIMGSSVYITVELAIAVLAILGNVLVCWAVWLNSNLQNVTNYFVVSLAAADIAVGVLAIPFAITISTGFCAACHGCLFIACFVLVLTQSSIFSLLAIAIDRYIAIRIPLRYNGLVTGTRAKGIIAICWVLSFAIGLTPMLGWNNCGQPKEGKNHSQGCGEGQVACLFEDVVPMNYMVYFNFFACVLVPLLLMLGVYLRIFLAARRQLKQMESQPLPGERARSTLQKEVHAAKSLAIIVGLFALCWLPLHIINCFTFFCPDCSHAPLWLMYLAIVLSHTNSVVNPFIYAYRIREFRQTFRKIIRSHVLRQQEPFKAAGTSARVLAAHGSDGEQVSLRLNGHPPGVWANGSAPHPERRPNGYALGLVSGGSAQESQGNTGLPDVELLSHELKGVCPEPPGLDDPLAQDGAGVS
Assay: Displacement of [3H]ZM241385 from human adenosine A2A receptor expressed in CHO cell membranes at 1 uM incubated for 60 mins by scintillation counting method
Measured inhibition accompanies every entry in the list below.
Answer format reminder: number followed by unit.

CCOc1nc(C)nc2sc(Nc3cccc(OC)c3)nc12	25%
Cc1nc2sc(-n3ccnc3)nc2c(=O)[nH]1	1%
COc1ccc(Nc2nc3c(=O)[nH]c(C)nc3s2)cc1	1%

# next compound below
QUERY: Supply measured inhibition of "Cc1nc2sc(-c3ccncc3)nc2c(=O)[nH]1" in your reply.
RESULT: 1%

* * *

Biological target: Adenosine receptor A1 (Homo sapiens) (UniProt P30542)
Sequence (whole entry): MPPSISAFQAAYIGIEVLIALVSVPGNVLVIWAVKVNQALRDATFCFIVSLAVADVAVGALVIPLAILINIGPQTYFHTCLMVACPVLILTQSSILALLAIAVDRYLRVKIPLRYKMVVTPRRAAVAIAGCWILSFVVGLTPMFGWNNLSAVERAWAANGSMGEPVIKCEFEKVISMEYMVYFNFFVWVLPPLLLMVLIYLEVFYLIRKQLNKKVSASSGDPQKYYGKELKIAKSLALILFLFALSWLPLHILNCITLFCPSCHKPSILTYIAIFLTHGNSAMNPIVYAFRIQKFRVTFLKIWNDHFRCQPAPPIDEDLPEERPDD
Test: Displacement of [3H]DPCPX from human adenosine A1 receptor expressed in CHO cell membranes at 1 uM incubated for 120 mins by scintillation counting method
# inhibition per entry
// units = %; emit number, no label

The examples below pair each entry with its known result.
CCOc1nc(C)nc2sc(-c3ccc(Cl)cc3)nc12	6
Cc1nc2sc(-c3ccc(C(F)(F)F)cc3)nc2c(=O)[nH]1	1
Cc1nc2sc(-c3cccc(C(F)(F)F)c3)nc2c(=O)[nH]1	1

QUERY: Give inhibition for the following molecule: "COc1ccc(Nc2nc3c(=O)[nH]c(C)nc3s2)cc1"
RESULT: 1

QUERY: Provide inhibition value for the following molecule: "Cc1nc2sc(-c3ccncc3)nc2c(=O)[nH]1"
RESULT: 1

QUERY: Write down inhibition measured for item "Cc1nc2sc(-c3ccccc3)nc2c(=O)[nH]1"
RESULT: 11

QUERY: Give inhibition for "Cc1nc2sc(-c3ccc(O)cc3)nc2c(=O)[nH]1"
RESULT: 1

QUERY: Give reported inhibition value for "COc1ccc(-c2nc3c(=O)[nH]c(C)nc3s2)cc1"
RESULT: 10

QUERY: Identify inhibition associated with the molecule "Cc1nc2sc(Nc3ccc(Cl)cc3)nc2c(=O)[nH]1"
RESULT: 33

QUERY: Indicate its recorded inhibition; the molecule in question is "Cc1nc2sc(-c3cccc(F)c3)nc2c(=O)[nH]1"
RESULT: 1

QUERY: Please give measured inhibition of the following entry: "Cc1nc2sc(-n3ccnc3)nc2c(=O)[nH]1"
RESULT: 1

QUERY: Give a short answer stating reported inhibition for "CCOc1nc(C)nc2sc(-c3ccccc3)nc12" .
RESULT: 11

QUERY: Output inhibition of "CCOc1nc(C)nc2sc(Nc3cccc(OC)c3)nc12"
RESULT: 3

QUERY: Given the molecule "Cc1nc2sc(-c3ccc(F)cc3)nc2c(=O)[nH]1" , write its reported inhibition.
RESULT: 1

QUERY: Report measured inhibition; entry is "Cc1ccc(-c2nc3c(=O)[nH]c(C)nc3s2)cc1"
RESULT: 17
